biological target: SARS-CoV-2 NSP3 macrodomain (Mac1) (Severe acute respiratory syndrome coronavirus 2); test: biochemical; assay type: binding; conditions: SARS CoV-2 macrodomain HTRF assay
Measurement name: Ligand efficiency (binding enery per heavy atom)

>>> quantitative_result("OC1(CNc2ncnc3[nH]ccc23)CCSCC1")
0.29
>>> quantitative_result("CC(C)(O)C1C2CCC2CN1c1ncnc2[nH]ccc12 (stereo not drawn)")
0.32
>>> quantitative_result("CC(C)(O)[C@@H]1CCCN1c1ncnc2[nH]ccc12")
0.31

---

target: SARS-CoV-2 NSP3 macrodomain (Mac1) (Severe acute respiratory syndrome coronavirus 2, UniProt P0DTD1); assay: biochemical; format: binding; conditions: compound at 200 μM; mean of three to four technical replicates; read-out: % competition at 200 μM (preliminary HTRF screen)
Classification field: fulfilled = inhibition at 200 µM at or over 50%; not fulfilled = inhibition at 200 µM under 50%.

>>> class("CC1(C)CCC(CO)N(c2ncnc3[nH]ccc23)C1 (stereo not drawn)")
"fulfilled"
>>> class("O=C(O)C(F)(F)F.OC[C@@H]1CC2(CC2)CN1c1ncnc2[nH]ccc12")
"fulfilled"
>>> class("OCC(CC1OCCO1)Nc1ncnc2[nH]ccc12 (stereo not drawn)")
"not fulfilled"
>>> class("OCC(CC1CCCC1)Nc1ncnc2[nH]ccc12 (stereo not drawn)")
"fulfilled"
>>> class("OCC(CC1CCCO1)Nc1ncnc2[nH]ccc12 (stereo not drawn)")
"not fulfilled"
